# Cytotoxicity (%) Huh-7 cells annotations
System: Huh-7 cells
Assay: in vitro
Format: cell-based, human
Settings: 50 µM, 24 h exposure, ATP content, 5% FBS

molecule: C=C(C)[C@@H]1CC[C@]2(COC(C)=O)CC[C@]3(C)[C@H](CC[C@@H]4[C@@]5(C)CC[C@H](O)C(C)(C)[C@@H]5CC[C@]43C)[C@@H]12
Cytotoxicity (%) Huh-7 cells: 5.1±1.0%
//
molecule: CCCCn1c(=O)n2n(c1=O)C1(C(C)C)CCC3(COC(C)=O)CCC4(C)C(=C31)C2CC1C2(C)CCC(OC(C)=O)C(C)(C)C2CCC14C (centres unmarked)
Cytotoxicity (%) Huh-7 cells: -8.3±1.3%
//
molecule: C=C(C)C1CCC2(COS(C)(=O)=O)CCC3(C)C(CCC4C5(C)CCC(OC(C)=O)C(C)(C)C5CCC43C)C12 (centres unmarked)
Cytotoxicity (%) Huh-7 cells: 0.2±3.8%
//
molecule: C=C(C)[C@@H]1CC[C@]2(C(=O)OC)CC[C@]3(C)[C@H](CC[C@@H]4[C@@]5(C)CC[C@H](O)C(C)(C)[C@@H]5CC[C@]43C)[C@@H]12
Cytotoxicity (%) Huh-7 cells: 33.7±7.0%
//
molecule: C=C(C)[C@@H]1CC[C@]2(COC(=O)c3cccnc3)CC[C@]3(C)[C@H](CC[C@@H]4[C@@]5(C)CC[C@H](O)C(C)(C)[C@@H]5CC[C@]43C)[C@@H]12
Cytotoxicity (%) Huh-7 cells: -0.4±3.4%
//
molecule: C=C(C)C1CCC2(COC(C)=O)CCC3(C)C(CCC4C5(C)CCC(OC(C)=O)C(C)(C)C5CCC43C)C12 (centres unmarked)
Cytotoxicity (%) Huh-7 cells: -11.1±3.8%
//
molecule: CC(=O)OCC12CCC3(C(C)C)C1=C1C(CC4C5(C)CCC(OC(C)=O)C(C)(C)C5CCC4(C)C1(C)CC2)n1c(=O)n(Cc2ccccc2)c(=O)n13 (centres unmarked)
Cytotoxicity (%) Huh-7 cells: 2.3±2.2%
//
molecule: CC(C)C12CCC3(COC(=O)C4CCCCC4)CCC4(C)C(=C31)C(CC1C3(C)CCC(OC(=O)C5CCCCC5)C(C)(C)C3CCC14C)n1c(=O)n(C)c(=O)n12 (centres unmarked)
Cytotoxicity (%) Huh-7 cells: -10.8±1.9%
//
molecule: CC(C)C12CCC3(COC(=O)c4ccccc4)CCC4(C)C(=C31)C(CC1C3(C)CCC(OC(=O)c5ccccc5)C(C)(C)C3CCC14C)n1c(=O)n(-c3ccccc3)c(=O)n12 (centres unmarked)
Cytotoxicity (%) Huh-7 cells: -6.2±3.7%
//
molecule: C=C(C)[C@@H]1CC[C@]2(C(=O)OC)CC[C@]3(C)[C@H](CC[C@@H]4[C@@]5(C)CCC(=O)C(C)(C)[C@@H]5CC[C@]43C)[C@@H]12
Cytotoxicity (%) Huh-7 cells: 23.0±4.0%
//
molecule: CC(C)C(=O)OCC12CCC3(C(C)C)C1=C1C(CC4C5(C)CCC(OC(=O)C(C)C)C(C)(C)C5CCC4(C)C1(C)CC2)n1c(=O)n(C)c(=O)n13 (centres unmarked)
Cytotoxicity (%) Huh-7 cells: -4.9±2.2%
//
molecule: C=C(C)[C@@H]1CC[C@]2(C#N)CC[C@]3(C)[C@H](CC[C@@H]4[C@@]5(C)CCC(=NOC(C)=O)C(C)(C)[C@@H]5CC[C@]43C)[C@@H]12
Cytotoxicity (%) Huh-7 cells: -7.2±3.0%
//
molecule: CC(C)C12CCC3(COC(=O)c4ccccc4)CCC4(C)C(=C31)C(CC1C3(C)CCC(OC(=O)c5ccccc5)C(C)(C)C3CCC14C)n1c(=O)n(C)c(=O)n12 (centres unmarked)
Cytotoxicity (%) Huh-7 cells: -10.6±4.1%
//
molecule: C=C(C)C1CCC2(C(=O)NC(CC(=O)O)C(=O)O)CCC3(C)C(CCC4C5(C)CCC(=O)C(C)(C)C5CCC43C)C12 [Compound 27, L-aspartyl amide of betulonic acid]
Cytotoxicity (%) Huh-7 cells: 10.9±1.3%
//
molecule: CC(C)C12CCC3(CO)CCC4(C)C(=C31)C(CC1C3(C)CCC(O)C(C)(C)C3CCC14C)n1c(=O)n(-c3ccccc3)c(=O)n12 (centres unmarked)
Cytotoxicity (%) Huh-7 cells: 2.8±5.3%
//
molecule: CC(=O)OCC12CCC3(C(C)C)C1=C1C(CC4C5(C)CCC(OC(C)=O)C(C)(C)C5CCC4(C)C1(C)CC2)n1c(=O)n(-c2ccc(F)cc2)c(=O)n13 (centres unmarked)
Cytotoxicity (%) Huh-7 cells: 0.8±3.4%
//
molecule: CC(=O)OCC12CCC3(C(C)C)C1=C1C(CC4C5(C)CCC(OC(C)=O)C(C)(C)C5CCC4(C)C1(C)CC2)n1c(=O)n(-c2ccc4c(c2)CCC4)c(=O)n13 (centres unmarked)
Cytotoxicity (%) Huh-7 cells: 7.9±2.2%
//
molecule: C=C(C)[C@@H]1CC[C@]2(COC(=O)C3C(C=C(C)C)C3(C)C)CC[C@]3(C)[C@H](CC[C@@H]4[C@@]5(C)CC[C@H](O)C(C)(C)[C@@H]5CC[C@]43C)[C@@H]12 (some centres unmarked)
Cytotoxicity (%) Huh-7 cells: -5.8±2.5%
//
molecule: CCn1c(=O)n2n(c1=O)C1(C(C)C)CCC3(COC(C)=O)CCC4(C)C(=C31)C2CC1C2(C)CCC(OC(C)=O)C(C)(C)C2CCC14C (centres unmarked)
Cytotoxicity (%) Huh-7 cells: 86.0±2.0%
//
molecule: CCC(=O)OCC12CCC3(C(C)C)C1=C1C(CC4C5(C)CCC(OC(=O)CC)C(C)(C)C5CCC4(C)C1(C)CC2)n1c(=O)n(C)c(=O)n13 (centres unmarked)
Cytotoxicity (%) Huh-7 cells: 11.1±5.1%
